# ASSAY_METHOD_TEXT: protein stability index of a GFP-peptide fusion (GPS, HEK-293T) (PSI 1-6); higher = more stable;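 note: 24-mer peptide tiles fused after GFP, lentivirally expressed, FACS-sorted into six equal bins by GFP/DsRed ratio, decoded by Illumina sequencing, PSI is the read-weighted mean bin number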
# COND: treatment: DMSO; c terminus: a fixed tail appended
READOUT_TYPE: protein stability index

# count of solved cases: 2
1. RNTHKDLLRFAQVFSQMIHLNETV [FEM1B]
2.74
2. EAEEEELRAELTKVEEEIVTLRQV [TPD52L2]
4.25

For this sequence ( FAIPVGSGLGYIAGSKVKDMAGDW [SPNS1] ), measured protein stability index is 2.35

Short answer for WLAVDGLVSPSNNSKEDAFSGTDW [ATF4] : protein stability index was 3.76

protein stability index reported for this sequence VRKSRDKAKRRNQEMQQKLVELSA [CEBPD] : 3.78

The measured protein stability index associated with KMKHHLTEHMKTHTGLKPYECGVC [ZBTB22] reads 3.32

protein stability index reported for this sequence AGPQSQVLCGVVMDRSLVQDAPLS [ADD1] : 3.62

Query VQLIQDTRIHILPSMNPDGYEVAA [CPN1] yields protein stability index of 2.55

// protein stability index lookup, sequence = RRLKTTRLKEYTIKSHSSLPPNNS [DAPK3] , result: 3.44
